Data origin, for the record: PubChem BioAssay (NCI)

# Tested on: DU-145 prostate
# protocol summary: NCI-60 one-dose screen, 48 h (100 = growth as untreated, 0 = no growth, -100 = all killed)
# conditions used: 10 µM unless noted
The panel holds about 83,000 compounds, 20% with a hit somewhere; the sample as a whole holds those more often. The source made the active and inactive calls. Rule for the calls: active = growth percent below 10; inactive = the rest.
Attribute: growth
endpoint: growth

>>> measured_value("Nc1cc(N)c(N=Nc2ccc(S(=O)(=O)O)cc2)cc1N=Nc1ccc(-c2ccc(N=Nc3ccc(O)c(C(=O)O)c3)cc2)cc1")
"111% (inactive)"
>>> measured_value("O=C(Nc1cccc(F)c1)c1cc(=O)[nH]c2cc(Br)ccc12")
"74.2% (inactive)"
>>> measured_value("O=c1cc(-c2ccccc2)oc2c(O)c(O)ccc12")
"68.4% (inactive)"
>>> measured_value("O=C(NCCCNC(=O)OCc1ccc2c(Br)cc(Br)c(O)c2n1)OCc1ccc2c(Br)cc(Br)c(O)c2n1")
"-80.8% (active)"
